System: DMS 114 small cell lung
Assay: NCI tumour cell line growth inhibition, 48 h
Value Type: TGI

Answered cases to consult:
CC(C)=Cc1cc(C(=O)Nc2ccc(Cl)c(Cl)c2)nc(N)n1	> 100 µM
Cc1cn(C2CC(O)C(CO)O2)c(=O)[nH]c1=O (centres undefined)	> 4670 µM
CCOC(=O)CC(=O)ON(C)C(C)=O	> 100 µM

Here is another compound to look at.
Name the recorded TGI of the item CC(=O)OC1=CC(n2cc(F)c(=O)[nH]c2=O)OC(C)C1=O (centres undefined) in your answer.
> 100 µM

---

Test system: HCC-2998 colon
Assay: NCI tumour cell line growth inhibition, 48 h
Exercise: for every item that follows, state its recorded TGI.

Take a look at these entries with their results.
O=C(/C=C/c1ccc(Cl)cc1)c1ccc(Nc2ccnc3cc(Cl)ccc23)cc1	> 100 µM
CCCCC(C(=O)NCCNC(=O)CCC(=O)N(C)O)C(=O)NCCNC(=O)CCC(=O)N(C)O	> 100 µM
CC(C)=Cc1cc(C(=O)Nc2ccc(Cl)c(Cl)c2)nc(N)n1	> 100 µM
CCCCCCN(CCCCCC)C(=O)Cc1c2n(c3ccccc13)Cc1ccccc1-2	> 100 µM
O=c1cc(-c2ccccc2)oc2cc(OCCCOc3ccc4c(=O)cc(-c5ccccc5)oc4c3)ccc12	> 100 µM
CCc1cc(Cc2cc(CC)c(NC(=O)C(=O)Cc3ccccn3)c(CC)c2Cl)c(Cl)c(CC)c1NC(=O)C(=O)Cc1ccccn1	> 100 µM
O=c1[nH]c(Nc2nc3ccccc3[nH]2)nc(O)c1-c1ccccc1	> 100 µM

The record that follows has no TGI shown yet.
State, in one line, measured TGI of O=S1(=O)OCCOS(=O)(=O)C1Br
> 100 µM
